Test: t1/2 in the brain of male wistar rats
Type: ADME, organism-based
Conditions: rat
Experimental Readout: half-life

Task: Using the record for `CC(C)(C)OCCOc1ccc(-c2nc(-c3cccc(C#N)c3)c[nH]2)cn1` , report its half-life.
Result: 1.1 h

###

Sequence of the target: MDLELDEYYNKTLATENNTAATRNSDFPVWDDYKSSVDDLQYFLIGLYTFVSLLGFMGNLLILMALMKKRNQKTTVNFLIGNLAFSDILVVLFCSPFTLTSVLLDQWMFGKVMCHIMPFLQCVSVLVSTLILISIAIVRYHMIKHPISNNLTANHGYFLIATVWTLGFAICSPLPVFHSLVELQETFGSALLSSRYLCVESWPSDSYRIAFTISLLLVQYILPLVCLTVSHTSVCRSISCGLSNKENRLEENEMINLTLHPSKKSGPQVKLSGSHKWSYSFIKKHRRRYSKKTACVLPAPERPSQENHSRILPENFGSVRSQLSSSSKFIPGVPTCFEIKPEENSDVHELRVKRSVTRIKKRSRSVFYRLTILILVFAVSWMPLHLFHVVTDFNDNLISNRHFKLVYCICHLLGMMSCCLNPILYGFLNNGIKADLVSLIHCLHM
Experimental Readout: Ki (nM)
Numbers only; they are read as nM.

Task: Need Ki, item `CC(C)(C)OCCOc1ccc(-c2nc(-c3cccc(C#N)c3)c[nH]2)cn1`
Result: 1.2

###

Test: Cmax in the CSF of male wistar rats
Assay type: ADME, organism-based, Cerebrospinal fluid
Conditions: rat
Experimental Readout: Cmax (nM)
All answers are understood in nM, so give the number only.

Task: Fill in the blank: the reported Cmax of `CC(C)(C)OCCOc1ccc(-c2nc(-c3cccc(C#N)c3)c[nH]2)cn1` is ____.
Result: 213

###

Experiment: tmax in the plasma of male wistar rats
Assay type: ADME, organism-based
Conditions: rat
Experimental Readout: Tmax (min)
Give just the numeric value; min need not be written.

Task: Please give the measured Tmax for this compound: `CC(C)(C)OCCOc1ccc(-c2nc(-c3cccc(C#N)c3)c[nH]2)cn1`
Result: 30

###

Assay: Cmax in the plasma of male wistar rats
Assay type: ADME, organism-based
Details: rat
Experimental Readout: Cmax (µM)
Field format: number, assumed µM, no unit text.

Task: # lookup: Cmax of `CC(C)(C)OCCOc1ccc(-c2nc(-c3cccc(C#N)c3)c[nH]2)cn1`
Result: 4.42

###

Experiment: t1/2 in the CSF of male wistar rats
Type: ADME, organism-based, Cerebrospinal fluid
Conditions: rat
Experimental Readout: half-life (h)
State the answer as a number, implicitly in h.

Task: Name the reported half-life value associated with the molecule `CC(C)(C)OCCOc1ccc(-c2nc(-c3cccc(C#N)c3)c[nH]2)cn1`
Result: 1.6

###

Assay: tmax in the CSF of male wistar rats
Assay type: ADME, organism-based, Cerebrospinal fluid
Conditions: rat
Experimental Readout: Tmax
Don't forget the unit after the value.

Task: Entry under review: `CC(C)(C)OCCOc1ccc(-c2nc(-c3cccc(C#N)c3)c[nH]2)cn1` . Reported Tmax?
Result: 30 min

###

Experiment: t1/2 in the plasma of male wistar rats
Type: ADME, organism-based
Settings: rat
Experimental Readout: half-life (h)
Report the value in h with no unit label.

Task: Bench note: what half-life did `CC(C)(C)OCCOc1ccc(-c2nc(-c3cccc(C#N)c3)c[nH]2)cn1` show?
Result: 1.1
